Cited source: ChEMBL document CHEMBL1159069

- systemName: Neuropeptide Y receptor type 1 (Homo sapiens)
- Sequence (P25929 whole entry): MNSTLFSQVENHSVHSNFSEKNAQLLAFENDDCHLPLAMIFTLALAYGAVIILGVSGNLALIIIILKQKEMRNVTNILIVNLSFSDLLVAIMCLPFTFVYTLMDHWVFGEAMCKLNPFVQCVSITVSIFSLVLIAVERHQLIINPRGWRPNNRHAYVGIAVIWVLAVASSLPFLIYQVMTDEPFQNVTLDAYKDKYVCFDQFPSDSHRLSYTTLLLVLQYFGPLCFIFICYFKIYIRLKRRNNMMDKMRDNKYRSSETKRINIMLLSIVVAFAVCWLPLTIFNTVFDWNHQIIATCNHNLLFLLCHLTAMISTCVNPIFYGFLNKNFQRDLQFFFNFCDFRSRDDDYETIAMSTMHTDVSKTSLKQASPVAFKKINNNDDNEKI
- testSummary: Displacement of [125I]NPY from human neuropeptide Y1 receptor expressed in human MCF7 cells after 40 mins
- Assay type: cell-based
- testParameters: read-out: Ki
measurementKind: pKi
Answers are plain numbers, as −log10 of the molar value.

Identify measured pKi corresponding to H-IKPIYRLRY-NH2
6.89

###

- systemName: Neuropeptide Y receptor type 2 (Homo sapiens)
- Sequence (P49146 whole entry): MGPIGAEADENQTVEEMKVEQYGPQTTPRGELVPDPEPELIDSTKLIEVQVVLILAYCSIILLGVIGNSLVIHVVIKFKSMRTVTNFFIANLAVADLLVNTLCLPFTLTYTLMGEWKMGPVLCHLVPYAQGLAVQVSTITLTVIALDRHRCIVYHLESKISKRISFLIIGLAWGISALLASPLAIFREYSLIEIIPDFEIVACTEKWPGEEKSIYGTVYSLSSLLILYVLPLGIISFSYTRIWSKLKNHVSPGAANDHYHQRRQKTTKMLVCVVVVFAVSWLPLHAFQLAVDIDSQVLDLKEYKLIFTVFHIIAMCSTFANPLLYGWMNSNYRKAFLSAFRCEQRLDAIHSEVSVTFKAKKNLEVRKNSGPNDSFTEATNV
- testSummary: Displacement of [125I]PYY from human neuropeptide Y2 receptor expressed in human SK-N-BE2 cells after 40 mins
- Format: cell-based
- testParameters: read-out: Ki
measurementKind: Ki (nM)
One number for each entry, in nM.

Name the value of Ki reported for H-INPIYRLRY-OH when tested on Neuropeptide Y receptor type 2 (Homo sapiens).
11.3
